Tested on: U251 CNS
TEST METHOD NOTES: NCI-60 one-dose screen, 48 h
SETUP CONDITIONS: 10 µM unless noted
This is part of a sample that, as a whole, favours compounds with a hit. Of some 83,000 tested, about 20% had one in any assay. Activity calls are given as the source filed them. How the source made its calls: active means growth percent below 10; inactive means the rest.
Hi! Could you answer with just one of these? 1 (active), 0 (inactive)

{"columns": ["COMPOUND", "CLASS"],
 "data": [
  ["CNC(=O)Oc1ccc(Cl)cc1SSc1cc(Cl)ccc1OC(=O)NC", 0],
  ["CCCCCCCCCCCCCCCCCC1OCC(COC(=O)O[C@@H](C(=O)O[C@H]2C[C@@]3(O)[C@@H](OC(=O)c4ccccc4)[C@@H]4[C@]5(OC(C)=O)CO[C@@H]5C[C@H](O)[C@@]4(C)C(=O)[C@H](OC(C)=O)C(=C2C)C3(C)C)[C@@H](NC(=O)c2ccccc2)c2ccccc2)O1 (stereo not given in full)", 0],
  ["C[C@]12CC[C@H](O)C[C@@H]1CC[C@@H]1[C@@H]2CC[C@]2(C)OC(=O)CC[C@@H]12", 0],
  ["C[N+]1(C)CCCC1c1cccnc1 (stereo not given)", 0]
]}

Hi team, can someone confirm the assay call for `CCN1C(=O)CC(=O)N(CC)C1=S` ?
0

Hi team, can someone confirm the assay call for CC12CCC3C(CCC4CC(O)CCC43C)C1CCC2=O (stereo not given) ?
0

---

System: HCT-15 colon
TEST METHOD NOTES: NCI-60 one-dose screen, 48 h
SETUP CONDITIONS: 10 µM unless noted
This is part of a sample that, as a whole, favours compounds with a hit. Of some 83,000 tested, about 20% had one in any assay. The source made the active and inactive calls. How the source made its calls: active means growth percent below 10; inactive means the rest.
Hi! Could you answer with just one of these? t = active, f = inactive

Some solved entries appear below for comparison.
{"columns": ["SMILES DATA", "CLASS"],
 "data": [
  ["Nc1cccnc1", "f"],
  ["O=[N+]([O-])c1c(Cl)cc(Cl)c([N+](=O)[O-])c1Cl", "f"],
  ["O=C1CN2CCC1CC2", "f"],
  ["C[C@]12CCc3sc(Nc4ccc(F)cc4F)nc3C1=CC[C@@H]1[C@@H]2CC[C@]2(C)C(=O)CC[C@@H]12", "t"]
]}

# next compound below
Hi team, can someone confirm the assay call for `C[C@]12CCc3nc(-c4ccc(O)c(O)c4)sc3C1=CC[C@@H]1[C@@H]2CC[C@]2(C)C(=O)CC[C@@H]12` ?
f

---

Entries and their growth
Test system: COLO 205 colon
TEST METHOD NOTES: NCI-60 one-dose screen, 48 h (100 = growth as untreated, 0 = no growth, -100 = all killed)
SETUP CONDITIONS: 10 µM unless noted
About 83,000 compounds went through this panel and 20% of them were active in at least one assay; those are over-represented in the sample as a whole.
Numeric answer only, unit % assumed.

{"columns": ["SMILES DATA", "growth [%]"],
 "data": [
  ["CN1CCN(c2ccc(Cl)cc2)CC1", 89.8],
  ["COc1cc(/C=C\\[N+](=O)[O-])ccc1OCc1ccccc1", 32.7],
  ["CSc1cc(/C=C(\\C)[C@@H]2C[C@@H]3O[C@]3(C)CCC[C@H](C)[C@H](O)[C@@H](C)C(=O)C(C)(C)[C@@H](O)CC(=O)O2)n(CCNC(=O)OC(C)(C)C)n1", 30.5]
]}

# context switch: different molecule, same growth
Can you share its growth? I mean this molecule: `N#CC(C#N)=Cc1cccc(F)c1`
115
